This collection of values is drawn from the supplement of paper PMC10598134.

test: collision cross section of modified peptide (TIMS, N2, iRT-aligned); higher = larger / more extended gas-phase ion; conditions: charge state: 3; modification: Succinyl
property: collision cross section (Å²)
Reply numerically in Å², unit not repeated.

                            orderedresidues  valueobserved
0  DSINFLDHINGKK [_DSINFLDHINGK(Succinyl)K_]         461.79
1  ALASIDSKLNQAK [_ALASIDSK(Succinyl)LNQAK_]         477.06
2  TTGFYSGFSEVAEKR [_TTGFYSGFSEVAEK(Succinyl)R_]         512.39
3  VLTANSNPSSPSAAKR [_VLTANSNPSSPSAAK(Succinyl)R_]         526.23
4         LDHLAEKFR [_LDHLAEK(Succinyl)FR_]         444.17

Task: Give the value of collision cross section reported for the following: IQQELQTAKK [_IQQELQTAK(Succinyl)K_]
Result: 438.22

Task: Give the value of collision cross section reported for the following: LFVGGIKEDTEEHHLR [_LFVGGIK(Succinyl)EDTEEHHLR_]
Result: 541.97

Task: Give the value of collision cross section reported for the following: VPTTEKPTVTVNFR [_VPTTEK(Succinyl)PTVTVNFR_]
Result: 513.15

Task: Give the value of collision cross section reported for the following: IVFSGNLFQHQEDSKK [_IVFSGNLFQHQEDSK(Succinyl)K_]
Result: 524.55

Task: Give the value of collision cross section reported for the following: AGQKLIDVNHYAK [_AGQK(Succinyl)LIDVNHYAK_]
Result: 483.35

Task: Give the value of collision cross section reported for the following: HELQANCYEEVKDR [_HELQANCYEEVK(Succinyl)DR_]
Result: 483.15

Task: Give the value of collision cross section reported for the following: IHNAENIQPGEQKYEYK [_IHNAENIQPGEQK(Succinyl)YEYK_]
Result: 525.87
